Provide the recorded IC50 for the entries that follow.
# system.tested: IDH2/R140Q (Homo sapiens, UniProt P48735, R140Q)
# Sequence (P48735 40-452 R140Q): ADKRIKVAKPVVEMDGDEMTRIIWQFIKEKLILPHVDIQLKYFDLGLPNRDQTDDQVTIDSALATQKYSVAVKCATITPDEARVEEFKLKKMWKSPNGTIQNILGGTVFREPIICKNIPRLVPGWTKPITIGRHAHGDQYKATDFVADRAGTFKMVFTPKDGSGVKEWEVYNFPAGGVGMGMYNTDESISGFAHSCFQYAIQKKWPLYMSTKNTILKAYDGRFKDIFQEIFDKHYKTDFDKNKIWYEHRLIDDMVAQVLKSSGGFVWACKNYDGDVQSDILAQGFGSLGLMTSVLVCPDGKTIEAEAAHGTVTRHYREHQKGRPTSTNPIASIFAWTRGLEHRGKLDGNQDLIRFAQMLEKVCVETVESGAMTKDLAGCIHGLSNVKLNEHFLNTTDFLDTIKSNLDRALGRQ
# test.name: Determination of the inhibitory activity of the compounds on IDH2/R140Q (NADPH reduction, resazurin/lipoamide dehydrogenase detection)
# Assay type: biochemical
# Parameters: purchased Abcam ab198153
# condition.label: IDH2/R140Q inhibitory activity; pre-incubated at 25° C. for 16 hours; read-out: IC50

In: Param readout= IC50; system= IDH2/R140Q (Homo sapiens, UniProt P48735, R140Q); entry= "Cc1cc2c(Nc3ccnc(C(F)(F)F)c3)nc(-c3ccccc3)nc2[nH]1" ; returns value.
Out: 100 to 1000 nM

In: Field: IC50 (IDH2/R140Q (Homo sapiens, UniProt P48735, R140Q)). Entry: "Cc1cc2c(-c3ccccc3)nc(Nc3ccccc3)nc2[nH]1"
Out: 1000 to 10000 nM

In: Give IDH2/R140Q (Homo sapiens, UniProt P48735, R140Q) IC50 for "Cc1cc2c(Nc3cccc(F)c3)nc(-c3ccccc3)nc2[nH]1"
Out: 1000 to 10000 nM

In: // lookup IC50 | system=IDH2/R140Q (Homo sapiens, UniProt P48735, R140Q) | key= "Cc1cc2c(NC(C)C)nc(-c3ccccc3F)nc2[nH]1"
Out: 100 to 1000 nM

In: Form field: IC50 recorded for "Cc1cc2c(NC3CCCC3)nc(-c3ccccc3F)nc2[nH]1" with IDH2/R140Q (Homo sapiens, UniProt P48735, R140Q) (enter value)
Out: < 100 nM

In: What is its IC50 for IDH2/R140Q (Homo sapiens, UniProt P48735, R140Q)? Entry: "CC(C)Nc1nc(-c2ccccc2)nc2[nH]c(Br)cc12"
Out: > 10000 nM

In: Value wanted: IC50 (IDH2/R140Q (Homo sapiens, UniProt P48735, R140Q)) of entry "Cc1cc2c(NC3CC3)nc(-c3ccccc3F)nc2[nH]1"
Out: 100 to 1000 nM

In: # returns recorded IC50 (system: IDH2/R140Q (Homo sapiens, UniProt P48735, R140Q)) for "CCOC(=O)Cc1cc2c(Nc3ccccc3)nc(-c3ccccc3)nc2[nH]1"
Out: 1000 to 10000 nM

In: Find IC50 (IDH2/R140Q (Homo sapiens, UniProt P48735, R140Q)) for the entry "Cc1cc2c(Nc3ccnc(F)c3)nc(-c3ccccc3)nc2[nH]1"
Out: > 10000 nM

In: Form: Entry = "Cc1ccc(-c2nc(NC3CC3)c3cc(C)[nH]c3n2)cc1" | System = IDH2/R140Q (Homo sapiens, UniProt P48735, R140Q) | IC50 = ____
Out: 1000 to 10000 nM

In: Kindly state the measured IC50 obtained for "Cc1cc2c(Nc3cccc(Cl)c3)nc(-c3ccccc3)nc2[nH]1" with IDH2/R140Q (Homo sapiens, UniProt P48735, R140Q).
Out: 1000 to 10000 nM

In: Give IC50 (IDH2/R140Q (Homo sapiens, UniProt P48735, R140Q)) of the following compound: "Cc1cc2c(NCC(C)C)nc(-c3ccccc3)nc2[nH]1"
Out: 100 to 1000 nM

In: Query for IDH2/R140Q (Homo sapiens, UniProt P48735, R140Q): what IC50 does the record show for "Cc1cc2c(NC3CCCCC3)nc(-c3ccccc3)nc2[nH]1" ?
Out: 1000 to 10000 nM

Reference source: patent US20220204509A1
